# assay.target: intracellular CK2α (Homo sapiens)
# Sequence (P19784 whole entry): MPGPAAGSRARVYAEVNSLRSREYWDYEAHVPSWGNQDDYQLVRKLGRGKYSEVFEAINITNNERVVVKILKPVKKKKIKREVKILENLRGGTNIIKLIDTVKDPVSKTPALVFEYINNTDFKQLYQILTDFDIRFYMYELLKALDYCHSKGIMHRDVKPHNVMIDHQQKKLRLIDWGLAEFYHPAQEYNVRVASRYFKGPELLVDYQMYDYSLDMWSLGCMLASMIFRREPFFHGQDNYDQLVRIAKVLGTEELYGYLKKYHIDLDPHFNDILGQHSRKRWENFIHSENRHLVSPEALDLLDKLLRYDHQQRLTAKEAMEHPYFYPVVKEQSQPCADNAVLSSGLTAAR
# protocol.description: Cell-based NanoBRET assay for inhibitor binding to intracellular CK2α
# condition.parameters: HCT116 cells transiently transfected with CSNK2A2-NanoLuc fusion vector; Tracer K-5; 2 h; read-out: Assay 3: NanoBRET ™ assay for binding to intracellular CK2α
measurement.kind: IC50 (µM)

compound	assay.target	IC50, µM
FC(F)(F)Oc1ccc(CNCCCOCCCOc2cc(-n3cnnc3)cc3[nH]ncc23)cc1Cl [Example 69]	intracellular CK2α (Homo sapiens)	2.85
OCc1cc(Cl)cc(CNCCCCOC2CN(c3cc(-c4cnoc4)cc4[nH]ncc34)C2)c1 [Example 136]	intracellular CK2α (Homo sapiens)	3.35
Cc1nncn1-c1cc(NCCCNC(=O)CCNCc2ccc(-c3ccccc3)c(Cl)c2)c2cn[nH]c2c1 [Example 71]	intracellular CK2α (Homo sapiens)	2.16

a. FC(F)(F)c1ccc2[nH]c(CNCCCCOCCNc3cc(-n4cnnc4)cc4[nH]ncc34)cc2c1 [Example 49]
b. c1cc(-c2cc(N3CC(OCCCCNCc4cc5cc(OC6CCC6)ccc5[nH]4)C3)c3cn[nH]c3c2)cnn1 [Example 109]
c. O=C(CCNCc1ccc(-c2ccccc2)c(Cl)c1)NCCCNc1cc(-c2ccncc2)cc2[nH]nnc12 [Example 8]
d. COc1cc(-c2cc(NCCOCCCCNCc3cc4cc(C(F)(F)F)ccc4[nH]3)c3cn[nH]c3c2)ccn1 [Example 87]
Prompt line: Order by IC50, ascending. To answer, arrange all of the labels according to the requested order.
Response line: a, c, d, b
(a: 0.106 µM, c: 0.304 µM, d: 1.3 µM, b: 2.81 µM)

This collection of values is drawn from patent US20260085062A1.
